Assay: In vitro permeation experiment of FP drug-in-adhesive patches in two-chamber diffusion cells
Type: in vitro ADME, rabbit
Conditions: permeant R-FP; patch 5% drug (w/w); enhancer equimolar to 5% 4-TER (control: no enhancer)
EXPERIMENTAL_READOUT: Tlag of R-FP (h)

Below: 5 compounds and their reported Tlag of R-FP.
{"columns": ["COMPOUND", "READING_UNIT", "Tlag of R-FP"],
 "data": [
  ["CC1=CCC(O)(C(C)C)CC1 (stereo not drawn) [d-4-TER, d-4-terpineol, reference compound]", "h", 3.58],
  ["CC1=CC[C@@](O)(C(C)C)CC1 [l-4-TER, l-4-terpineol, reference compound]", "h", 3.82],
  ["C[C@@H](C(=O)O)c1ccc(-c2ccccc2)c(F)c1 [R-FP]", "h", 2.43],
  ["CCCCCCC(=O)OC1(C(C)C)CC=C(C)CC1 (stereo not drawn) [l-4-T-C7]", "h", 2.11],
  ["CCCCCCCCCCCCCC(=O)OC1(C(C)C)CC=C(C)CC1 (stereo not drawn) [d-4-T-C14]", "h", 3.98]
]}

A = CCCCCCC(=O)OC1(C(C)C)CC=C(C)CC1 (stereo not drawn) [d-4-T-C7]
B = CCCCCCCCC=CCCCCCCCC(=O)OC1(C(C)C)CC=C(C)CC1 (stereo not drawn) [d-4-T-dC18]
Which value of Tlag of R-FP is numerically greater: that of A or that of B ? Your answer should be the label of the entry you select. B
(B: 3.95 h, A: 2.40 h)

Cited source: paper PMC7269032
